Source: ChEMBL document CHEMBL4513216

assay.notes: Toxicity liver stage against HepG2, at 10uM
Format: cell-based
Set-up: test concentration 10 uM, cell line HepG2-A16-CD81EGFP
measurement.parameters: human, HepG2-A16-CD81EGFP cells; read-out: INHIBITION
# cytotoxicity at 10 µM values compiled below
# output: bare number, implied unit %

Consider the following illustrative entries.
| molecule | reading |
| --- | --- |
| COCCC(=O)N1CCc2c(CNc3ncccn3)cncc2C1 | 9.05 |
| COc1ccccc1N1CCCC(NC(=O)Nc2cccnc2)C1 (stereo unspecified) | 9.86 |
| CC(=O)N1Cc2ccccc2CC1C(=O)Nc1ccc(C)cn1 (stereo unspecified) | -0.147 |
| CCn1cnc(NC(=O)N2CCC(c3ccc(F)cc3)C2)n1 (stereo unspecified) | 4.17 |
| C1CCN(CCOC2CCNCC2)C1 | 6.59 |

Next up:
In: # query: cytotoxicity at 10 µM of entry O[C@H]1CN(Cc2ccc3c(c2)OCCO3)CC[C@@]12CCCO2
Out: -2.92
